biological target: T1, Recombinant human glypican-3 (aa 1-559), His-tagged, R&D Systems (human, UniProt P51654 25-559); test: SPR, Biacore T100, GPC3-His immobilised, 1:1 fit
T1 construct: also called huGPC3; Hu GPC3-His
T1 sequence (P51654 other isoform, or with tags, fused parts or gaps): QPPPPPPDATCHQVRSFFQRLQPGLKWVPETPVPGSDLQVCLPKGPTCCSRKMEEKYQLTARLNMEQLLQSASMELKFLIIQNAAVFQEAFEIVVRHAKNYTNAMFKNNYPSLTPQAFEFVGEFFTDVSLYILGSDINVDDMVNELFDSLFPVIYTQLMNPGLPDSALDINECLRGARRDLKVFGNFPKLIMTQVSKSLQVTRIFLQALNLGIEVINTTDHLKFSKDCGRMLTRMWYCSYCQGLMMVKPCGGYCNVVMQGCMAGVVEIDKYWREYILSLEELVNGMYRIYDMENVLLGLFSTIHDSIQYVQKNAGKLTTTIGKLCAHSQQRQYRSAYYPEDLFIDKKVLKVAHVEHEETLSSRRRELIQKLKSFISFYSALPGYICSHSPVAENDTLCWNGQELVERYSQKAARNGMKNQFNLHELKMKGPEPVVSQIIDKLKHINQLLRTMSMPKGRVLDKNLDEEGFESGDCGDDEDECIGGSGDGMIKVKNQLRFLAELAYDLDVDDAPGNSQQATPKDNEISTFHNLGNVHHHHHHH
metric: kon (M⁻¹ s⁻¹)
Give bare numbers, in M⁻¹ s⁻¹.

Consider the worked cases shown below.
binder	kon / M⁻¹ s⁻¹
ADX_6077_F02 DG→DV mutant, alkylated (designed binder, C-terminal cysteine alkylated, also called P1-055672) GVSDVPRDLEVVAATPTSLLISWSDDYHAHRYYRITYGETGGNSPVQEFTVPGEHVTATISGLKPGVDYTITVYAVTYDVEKAATDWSISINYRTPC	71000
ADX_6077_F02 DG→AG mutant, alkylated (designed binder, C-terminal cysteine alkylated, also called P1-055669) GVSDVPRDLEVVAATPTSLLISWSDDYHAHRYYRITYGETGGNSPVQEFTVPGEHVTATISGLKPGVDYTITVYAVTYAGEKAATDWSISINYRTPC	103000
ADX_6077_F02 DG→DS mutant, alkylated (designed binder, C-terminal cysteine alkylated, also called P1-055667) GVSDVPRDLEVVAATPTSLLISWSDDYHAHRYYRITYGETGGNSPVQEFTVPGEHVTATISGLKPGVDYTITVYAVTYDSEKAATDWSISINYRTPC	71600

Now consider a different binder.
Ask: Look up kon for this binder: ADX_6077_F02 DG→DL mutant, alkylated (designed binder, C-terminal cysteine alkylated, also called P1-055671) GVSDVPRDLEVVAATPTSLLISWSDDYHAHRYYRITYGETGGNSPVQEFTVPGEHVTATISGLKPGVDYTITVYAVTYDLEKAATDWSISINYRTPC
Reply: 72600
